tested on: K-562 leukemia; test: NCI-60 one-dose screen, 48 h; conditions: 10 µM unless noted
Compounds without any hit were thinned out: in the full panel of roughly 83,000, 20% have a hit. The source made the active and inactive calls. The calls were made as follows: active = growth percent below 10; inactive = the rest.
Response enum: active, inactive

Examples from the recorded data:
Cc1ccc(S(=O)c2ccc([N+](=O)[O-])c3nonc23)cc1 (centres undefined)    inactive
Cc1cc(OC(=O)c2ccc([N+](=O)[O-])cc2)nc2[nH]c(=O)sc12    inactive
COc1ccc(-c2nsc3c2NC(=O)CC3c2ccc3c(c2)OCCO3)cc1 (centres undefined)    inactive
c1ccc2cc3c(Nc4ccc(N5CCOCC5)cc4)ccnc3cc2c1    inactive
COc1cccc(C2=NN3C(C2)c2ccccc2OC3c2ccc(/C=C3\SC(=O)NC3=O)cc2)c1 (centres undefined)    inactive

Any idea what this test logged for CCOC(=O)c1cc2c(n1Cc1cccc(OC)c1)-c1oncc1CCC2 ?
inactive

Entry Nc1ccc(C2c3ccccc3Oc3ccccc32)cc1 : call = ?
inactive

---

test system: KM12 colon; experiment: NCI-60 one-dose screen, 48 h (100 = growth as untreated, 0 = no growth, -100 = all killed); details: 10 µM unless noted
This is part of a sample that, as a whole, favours compounds with a hit. Of some 83,000 tested, about 20% had one in any assay. Calls of active or inactive are those of the source. Rule for the calls: active = growth percent below 10; inactive = the rest.
Some compounds, each annotated with its measured growth.

Worked cases, growth given:
Cc1cccc2c(=O)c3c(sc12)c(NCCN)nc1ccccc13    -90.5% (active)
COc1ccc(CCN2C(=O)/C(=C/c3ccc(C4Oc5ccccc5C5CC(c6cccc(OC)c6)=NN54)cc3)SC2=S)cc1 (stereo not drawn)    105% (inactive)
O=NN(Cc1cccnc1)C(=O)NC1CCCCC1    109% (inactive)
CNCCNc1nc2ccccc2c2c(=O)c3cccc(OC)c3sc12    -47.9% (active)

GET /values?readout=growth&system=KM12 colon&item= CC(=O)c1ccc(Cc2ccc(C(C)=O)s2)s1
95.2% (inactive)

What reported growth corresponds to CCCCN1CCN(c2ccc3nc(-c4ccc5nc(-c6ccc(C(F)(F)F)cc6)[nH]c5c4)[nH]c3c2)CC1 on KM12 colon?
-88.3% (active)

Item: O=C(CCc1nnc2sc(Cc3ccccc3Cl)nn12)c1nc2ncccc2[nH]1 Test system: KM12 colon Read-out: growth Value: ?
97.1% (inactive)

---

system: DU-145 prostate; assay: NCI-60 one-dose screen, 48 h; details: 10 µM unless noted
Compounds without any hit were thinned out: in the full panel of roughly 83,000, 20% have a hit. Active and inactive are the calls of the source. How the source made its calls: active means growth percent below 10; inactive means the rest.
A correct response names exactly one class from y = active, n = inactive

O=S(=O)(c1ccccc1)n1cc2c(c1-c1ccccc1)CCc1sc(Nc3ccccc3)nc1-2    n
O=C1/C(=C/c2ccc(O)cc2)COc2ccc(O)c(O)c21    n
CN1CCN(Cc2ccc(NC(=O)c3[nH]ncc3Nc3cc(OC4CCCC4)ncn3)cc2)CC1    n
Cc1ccc2c(n1)C(=O)C(Oc1ccc(Br)cc1)=CC2=O    n
N#C/C(=C\c1c(-c2ccccc2)[nH]c2ccccc12)S(=O)(=O)c1ccccc1    n

// outcome(item) with item = CCOC(=O)c1cnc2ccc(Cl)cc2c1NCCCN(C)C
n

Recorded test outcome, item O=CCCCC(O)C=O (stereo unspecified)
n

What call does the record list for O=C(c1nc2ccccc2[nH]1)C1[C@@H](c2cccc(O)c2)C2CC3CCCCC3N2[C@@]12C(=O)Nc1cc(Cl)ccc12 (stereo partly specified) ?
n

Record lookup: outcome of this test for O=S(=O)(c1ccc(NC(=S)NC23CC4CC(CC(C4)C2)C3)cc1)N1CCCCC1 ?
n

---

system: MCF7 breast; assay: NCI-60 one-dose screen, 48 h; details: 10 µM
About 83,000 compounds went through this panel and 20% of them were active in at least one assay; those are over-represented in the sample as a whole. Activity calls are given as the source filed them. How the source made its calls: active means growth percent below 10; inactive means the rest.
Output constraint: value belongs to 1 for active, -1 for inactive

Before answering, review these 3 worked examples.
O=C1NC(=O)C(=Cc2cn(Cc3cn(Cc4ccc(Cl)cc4Cl)nn3)c3ccccc23)C(=O)N1    -1
COc1cc(/C=C2\CCC/C(=C\c3cc(CN4CCCCC4)c(O)c(OC)c3)C2=O)cc(CN2CCCCC2)c1O    -1
COc1ccc(/C=C2\SC(=Nc3ccccc3)NC2=O)cc1    1

Short answer needed: outcome of this test for NS(=O)(=O)c1ccc(CCN=C=S)cc1 ?
1

Please indicate how the test categorized O=C(CCc1nnc2sc(-c3ccc(Cl)cc3Cl)nn12)c1nc2ncccc2[nH]1 .
1

How was COc1ccccc1N1CCN(C(CNS(=O)(=O)c2ccc(Cl)cc2)c2cccnc2)CC1 (configuration not stated) classified in this test?
-1

Recorded test outcome, item CCOc1ccc(-c2nonc2NC(=O)c2cccc(C)c2)cc1OCC
-1

Record lookup: outcome of this test for COc1cc(CNC(=O)Cc2ccccc2)ccc1OCc1cn(-c2ccc(F)cc2)nn1 ?
-1

What is the recorded call for this compound in the test? CC1=C(C(=O)OCC2CCN(C(=O)OC(C)(C)C)CC2)[C@H](c2cccc(Br)c2)C2=C(CC(C)(C)CC2=O)N1
-1

---

test system: UACC-62 melanoma; test: NCI-60 one-dose screen, 48 h; conditions: 10 µM unless noted
Compounds without any hit were thinned out: in the full panel of roughly 83,000, 20% have a hit. Calls of active or inactive are those of the source. How the source made its calls: active means growth percent below 10; inactive means the rest.
The reply should be one of these categories: true (1) = active, false (0) = inactive

The examples below pair each entry with its known result.
O=C(c1nc2ccccc2[nH]1)C1C(c2ccc([N+](=O)[O-])cc2)C2CC3CCCCC3N2[C@@]12C(=O)Nc1cc(Cl)ccc12 (stereo partly drawn)    false (0)
O=C(CCc1nnc2sc(Cc3ccccc3Cl)nn12)c1nc2ncccc2[nH]1    false (0)
COc1ccc(/C=C/C(=O)c2ccc(Nc3nc(NCCO)nc(Nc4ccc(Cl)cc4)n3)cc2)cc1    false (0)
O=c1oc2ccc(Br)cc2c(=O)n1-c1ccc(Br)cc1F    true (1)
O=C(O)CCCN1C(=O)C2C3CCC(C3)C2C1=O (stereo not drawn)    false (0)
CCOC(=O)c1c2c(n3cccc(Cl)c13)C(=O)c1ncccc1C2=O    false (0)
CCOC(=O)c1ccc(N=Cc2sc(=O)[nH]c2O)cc1    false (0)
O=C(O)c1cn(C2CC2)c2cc(N3CCN(C(=O)C[n+]4ccccc4)CC3)c(F)cc2c1=O    false (0)
COc1ccc(Cn2c(Br)c3c(c2Br)-c2nc(N)sc2CC3)cc1    false (0)
O=C1OC(c2ccccc2)(c2ccccc2)c2ccsc21    false (0)

Look up the recorded call for O=c1oc2ccc(I)cc2c(=O)n1-c1ccc(F)cc1F in this test.
true (1)

What was the test verdict on O=C1/C(=C/c2ccc(O)cc2)COc2ccc(O)c(O)c21 ?
false (0)

---

Item-by-item account of growth
system: NCI-H522 lung; experiment: NCI-60 one-dose screen, 48 h (100 = growth as untreated, 0 = no growth, -100 = all killed); details: 10 µM unless noted
This is part of a sample that, as a whole, favours compounds with a hit. Of some 83,000 tested, about 20% had one in any assay.
Respond with the bare value in %.

// below: answered compounds
O=C(Nc1ccc(I)cc1F)c1cc(F)ccc1O    -15.8
O=C(CSc1ncccc1C(=O)O)Nc1ccc(Oc2ccccc2)cc1    105
COc1nccc2cc3c(=O)n4c(cc5ccccc54)c(=O)n3c12    93.7
Cn1c(C(=O)c2cccc3ccccc23)nc2ccccc21    -4.82
CCCCC(O)(c1ccc(Cl)cc1)C(CN1CCOCC1)c1ccc(Cl)cc1 (stereo not given)    19.8
CC(=S)NC(=O)C(=O)/C=C1/NC(=O)C(=O)S1    105
O=C(CSc1nc2ccccc2c(=O)n1-c1ccccc1)Nc1ccc(C(=O)/C=C/c2ccc(Cl)cc2)cc1    85.3
CC(=O)SC1CC(=O)C=C2CCC3C4CCC(=O)OC4(C)CCC3C21C (stereo not given)    92.7

Give the measured growth of COc1cc(C(=O)O/N=C(\N)Cc2cccc3ccccc23)cc(OC)c1OC .
-10.9

What value of growth has been recorded for this entry: O=c1oc2ccc(I)cc2c(=O)n1-c1ccc(Cl)cc1F
-17.1

---

# maps each entry to its growth
tested on: RPMI-8226 leukemia; experiment: NCI-60 one-dose screen, 48 h (100 = growth as untreated, 0 = no growth, -100 = all killed); conditions: 10 µM unless noted
About 83,000 compounds went through this panel and 20% of them were active in at least one assay; those are over-represented in the sample as a whole.
Note: unit % is implicit; provide only the numeric part.

Solved cases (5 shown):
COc1cc([C@@H]2NC(=O)NC(C)=C2C(=O)Nc2nc(-c3ccc(Cl)cc3)cs2)ccc1O    111
Cc1ccc2[nH]c(=O)cc(-n3nncc3Cn3c4ccccc4c4ccccc43)c2c1    109
O=C(N/N=C/c1ccccc1Cl)C(=O)Nc1cccc(C(F)(F)F)c1    93.9
COC(=O)/C(CCC=C(C)C)=C1\[C@@H](OC(C)=O)C[C@@]2(C)[C@H]1C[C@@H](O)[C@H]1[C@@]3(C)CC[C@H](NCCO)[C@@H](C)[C@@H]3CC[C@@]12C    101
c1ccc2cc3c(Nc4ccc(N5CCOCC5)cc4)ccnc3cc2c1    60.1

From here, focus on the item given below.
Identify the measured growth of O=C(Nc1ccc(N2CCNCC2)cc1)c1[nH]ncc1Nc1cc(C2CC2)ncn1 for RPMI-8226 leukemia.
55.4

The values you see were collected from PubChem BioAssay (NCI).
